Conditions: in n-pentanol, 318.26 K
MEASURE_NAME: solubility (mole fraction)
// response body must contain only the number

What does the data say about its solubility (mole fraction)? Entry: COC(=O)/C=C(\C)N[C@@H](C(=O)[O-])c1ccc(O)cc1.[K+]
0.00017

###

Settings: in 2-pentanol, 318.29 K
MEASURE_NAME: solubility (mole fraction)
// response body must contain only the number

What does the data say about its solubility (mole fraction)? Entry: COC(=O)/C=C(\C)N[C@@H](C(=O)[O-])c1ccc(O)cc1.[K+]
0.000169

###

Settings: in sec-butanol, 313.05 K
MEASURE_NAME: solubility (mole fraction)
// response body must contain only the number

What does the data say about its solubility (mole fraction)? Entry: COC(=O)/C=C(\C)N[C@@H](C(=O)[O-])c1ccc(O)cc1.[K+]
8.11e-05

###

Conditions: in isopropanol, 308.41 K
MEASURE_NAME: solubility (mole fraction)
// response body must contain only the number

What does the data say about its solubility (mole fraction)? Entry: COC(=O)/C=C(\C)N[C@@H](C(=O)[O-])c1ccc(O)cc1.[K+]
8.4e-05

###

Settings: in ethanol, 308.19 K
MEASURE_NAME: solubility (mole fraction)
// response body must contain only the number

What does the data say about its solubility (mole fraction)? Entry: COC(=O)/C=C(\C)N[C@@H](C(=O)[O-])c1ccc(O)cc1.[K+]
0.000519

###

Details: in n-pentanol, 323.25 K
MEASURE_NAME: solubility (mole fraction)

What does the data say about its solubility (mole fraction)? Entry: COC(=O)/C=C(\C)N[C@@H](C(=O)[O-])c1ccc(O)cc1.[K+]
0.00019

###

Settings: in n-propanol, 308.18 K
MEASURE_NAME: solubility (mole fraction)
// response body must contain only the number

What does the data say about its solubility (mole fraction)? Entry: COC(=O)/C=C(\C)N[C@@H](C(=O)[O-])c1ccc(O)cc1.[K+]
0.000228

###

Conditions: in 2-pentanol, 313.15 K
MEASURE_NAME: solubility (mole fraction)
// response body must contain only the number

What does the data say about its solubility (mole fraction)? Entry: COC(=O)/C=C(\C)N[C@@H](C(=O)[O-])c1ccc(O)cc1.[K+]
0.000141

###

Conditions: in methanol, 333.35 K
MEASURE_NAME: solubility (mole fraction)
// response body must contain only the number

What does the data say about its solubility (mole fraction)? Entry: COC(=O)/C=C(\C)N[C@@H](C(=O)[O-])c1ccc(O)cc1.[K+]
0.006

###

Conditions: in n-pentanol, 308.19 K
MEASURE_NAME: solubility (mole fraction)

What does the data say about its solubility (mole fraction)? Entry: COC(=O)/C=C(\C)N[C@@H](C(=O)[O-])c1ccc(O)cc1.[K+]
0.000134

###

Conditions: in 2-pentanol, 323.15 K
MEASURE_NAME: solubility (mole fraction)
// response body must contain only the number

What does the data say about its solubility (mole fraction)? Entry: COC(=O)/C=C(\C)N[C@@H](C(=O)[O-])c1ccc(O)cc1.[K+]
0.000196

###

Conditions: in n-propanol, 293.15 K
MEASURE_NAME: solubility (mole fraction)
// response body must contain only the number

What does the data say about its solubility (mole fraction)? Entry: COC(=O)/C=C(\C)N[C@@H](C(=O)[O-])c1ccc(O)cc1.[K+]
0.000178
